test system: T-24; assay: Cytotoxicity against human T24 cells assessed as reduction of colony formation at 1 uM after 7 days by methylene blue staining-based assay; assay type: functional, cell-based
Activity calls are given as the source filed them. The calls are words filed in the database; no cut-off is given here.
Outcome codes: active, inactive

# compound, targetOfAssay, categoryLabel
measured = [
    ("N=C(CCl)NCCCNc1c2c(c(NCCNC(=N)CCl)c3sccc13)C(=O)c1ccccc1C2=O", "T-24", "active"),
    ("N=C(N)NCCCCNc1c2c(c(NCCCCNC(=N)N)c3sccc13)C(=O)c1ccccc1C2=O", "T-24", "inactive"),
    ("N=C(N)NCCNc1c2c(c(NCCNC(=N)N)c3sccc13)C(=O)c1ccccc1C2=O", "T-24", "inactive"),
    ("N=C(CCl)NCCNc1c2c(c(NCCNC(=N)CCl)c3sccc13)C(=O)c1ccccc1C2=O", "T-24", "active"),
]

----------
Parameter pIC50: see the listing below.
assay: Cytotoxicity against human T24 cells harboring HRAS mutant assessed as reduction of metabolic activity after 72 hrs by resazurin assay; format: functional, cell-based; details: T-24, 72 h
pIC50: −log10 of the molar value.

# compound, pIC50
records = [
    ("N=C(N)NCCNc1c2c(c(NCCNC(=N)N)c3sccc13)C(=O)c1ccccc1C2=O", 5.36),
    ("N=C(CCl)NCCNc1c2c(c(NCCNC(=N)CCl)c3sccc13)C(=O)c1ccccc1C2=O", 5.57),
    ("N=C(CCl)NCCCNc1c2c(c(NCCNC(=N)CCl)c3ccsc13)C(=O)c1ccccc1C2=O", 5.54),
    ("N=C(CCl)NCCCNc1c2c(c(NCCNC(=N)CCl)c3sccc13)C(=O)c1ccccc1C2=O", 5.52),
    ("N=C(CCl)NCCCCNc1c2c(c(NCCCCNC(=N)CCl)c3sccc13)C(=O)c1ccccc1C2=O", 4.94),
    ("N=C(CCl)NCCCNc1c2c(c(NCCCNC(=N)CCl)c3sccc13)C(=O)c1ccccc1C2=O", 5.17),
]

----------
Parameter pKd: see the listing below.
test: Binding affinity to 5' FAM/3' TAMRA labeled HRAS2 G-quadruplex DNA (unknown origin) by FRET analysis
pKd: −log10 of the molar value.

# compound, pKd
data = [
    ("N=C(CCl)NCCCNc1c2c(c(NCCCNC(=N)CCl)c3sccc13)C(=O)c1ccccc1C2=O", 6.56),
    ("N=C(CCl)NCCCCNc1c2c(c(NCCCCNC(=N)CCl)c3sccc13)C(=O)c1ccccc1C2=O", 6.67),
    ("N=C(CCl)NCCNc1c2c(c(NCCNC(=N)CCl)c3sccc13)C(=O)c1ccccc1C2=O", 6.50),
    ("N=C(CCl)NCCCNc1c2c(c(NCCNC(=N)CCl)c3ccsc13)C(=O)c1ccccc1C2=O", 6.66),
    ("N=C(CCl)NCCCNc1c2c(c(NCCNC(=N)CCl)c3sccc13)C(=O)c1ccccc1C2=O", 6.77),
]
